# target or system: Nuclear receptor coactivator 3 (Homo sapiens)
# assay remarks: SRC3 coactivator transcriptional activity inhibitors, confirmation, cell-based, luminescence, quadruplicate (AID 588792);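 note: 0% = DMSO treated cells and 100% = gossypol at 36 µM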
# measurement setup: HEK293 GAL4-SRC3 luciferase reporter, at 3.6 µM, hits give high values
property: inhibition (%)

INSERT INTO measurements (compound, unit_text, assay_value) VALUES
  ('Cc1ccc(-c2nnn(CC(=O)N(Cc3cccs3)C(C(=O)NC3CCCC3)c3ccncc3)n2)cc1 (stereo not given)', '%', 58.2),
  ('Cc1nn(C)cc1C(C)NC(=O)c1cc(COc2cccc3cnccc23)on1 (stereo not given)', '%', 18.6),
  ('C=CCOc1ccc(/C=C2\SC(=S)N(CCC(=O)O)C2=O)cc1', '%', 32.8),
  ('C=CCC1(CC=C)CCCN1C(=O)c1cc(COc2ccc(-n3cncn3)cc2)on1', '%', 5.51),
  ('CCn1c(C)cc(C(=O)COC(=O)c2ccccc2[N+](=O)[O-])c1C', '%', 92.9),
  ('CC(C)=CC(O)C/C(C)=C/COc1ccc2ccc(=O)oc2c1 (stereo not given)', '%', 17.4),
  ('c1nc(NCc2ccc3c(c2)OCO3)c2cc(-c3ccoc3)ccc2n1', '%', 70.4),
  ('O=C(NCc1cccnc1)/C(=C\c1ccc(-c2ccc(Br)cc2)o1)S(=O)(=O)c1ccccc1', '%', 72.6),
  ('CC(C)(C)c1cc(C(=O)N/N=C/c2ccccc2O)n(-c2ccccc2)n1', '%', 35.7),
  ('O=C(CC1CS(=O)(=O)CC1CC(=O)Nc1ccc2c(c1)OCCO2)Nc1ccc2c(c1)OCCO2 (stereo not given)', '%', 37.1);

---

# target or system: Nuclear receptor coactivator 2 (Homo sapiens)
# assay remarks: SRC2 coactivator transcriptional activity inhibitors, confirmation, cell-based, luminescence, HEK293, triplicate (AID 652008);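 note: 0% = DMSO-treated cells and 100% = Gossypol at 36 µM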
# measurement setup: HEK293 GAL4-SRC2 luciferase reporter, at 8.9 µM, hits give high values
# binarize inhibition: threshold 30% inclusive, high side met, low side not met

INSERT INTO results (molecule, group) VALUES
  ('COC(=O)N1C(=O)[C@](c2ccccc2)(C2CCCC2)N1C(=O)OC', 'not met'),
  ('Cc1cc(C(=O)CSc2nc3ccccc3[nH]2)c(C)n1CC1CCCO1 (stereo not given)', 'met'),
  ('C=CS(=O)(=O)N(Cc1nnn(Cc2ccccc2)c1Br)[C@H](C(=O)OC)C(C)C', 'not met'),
  ('COc1ccc(/C=C2\SC(=S)N(CCCC(=O)N3CCN(C)CC3)C2=O)cc1', 'not met'),
  ('COC(=O)[C@H]1[C@@H](O)[C@@]2(O)c3c(OC)cc(OC)cc3O[C@@]2(c2ccc(OC)cc2)[C@@H]1c1ccc(F)cc1', 'met'),
  ('Clc1ccc(-n2ncc3c(N4CCCCCC4)ncnc32)cc1', 'met'),
  ('O=C(/C=C/Nc1ccccc1Br)c1ccccn1', 'met'),
  ('CC(=O)Nc1cccc(-c2cc(NC(C)=O)c3ncc(-c4ccc(F)cc4)n3c2)c1', 'not met'),
  ('CC1CN(C(=O)CCC(=O)N2CCN(c3cccc(C(F)(F)F)c3)CC2)c2ccccc2O1 (stereo not given)', 'not met'),
  ('COc1ccc(CNn2c(-c3cccs3)nc3ccccc3c2=O)cc1OC', 'met');
